Assay: single dose, oral pharmacokinetic study in rats (total EPA plasma levels)
Assay type: in vivo
Details: total dose 40.0 mg/kg, analyte EPA, baseline adjusted and multiplied by EPA molar dose adjustment factor
assay.endpoint: Baseline and EPA Molar Dose Equivalent Adjusted AUC0-18 hrs of Total EPA in plasma (µg·h/mL)
Please respond with the number in µg·h/mL and leave the unit unwritten.

IN: Name the recorded Baseline and EPA Molar Dose Equivalent Adjusted AUC0-18 hrs of Total EPA in plasma of the item CC/C=C\C/C=C\C/C=C\C/C=C\C/C=C\CCCC(=O)O.CC/C=C\C/C=C\C/C=C\C/C=C\C/C=C\CCCC(=O)O.NCCCC[C@H](N)C(=O)[O-].NCCCC[C@H](N)C(=O)[O-].[Mg+2] [TP-252, magnesium bis-lysinate bis-EPA dihydrate] in your answer.
OUT: 133
